pEC50 overview
- Target: Transient receptor potential cation channel subfamily V member 1 (Rattus norvegicus, UniProt O35433)
- Sequence (O35433 whole entry): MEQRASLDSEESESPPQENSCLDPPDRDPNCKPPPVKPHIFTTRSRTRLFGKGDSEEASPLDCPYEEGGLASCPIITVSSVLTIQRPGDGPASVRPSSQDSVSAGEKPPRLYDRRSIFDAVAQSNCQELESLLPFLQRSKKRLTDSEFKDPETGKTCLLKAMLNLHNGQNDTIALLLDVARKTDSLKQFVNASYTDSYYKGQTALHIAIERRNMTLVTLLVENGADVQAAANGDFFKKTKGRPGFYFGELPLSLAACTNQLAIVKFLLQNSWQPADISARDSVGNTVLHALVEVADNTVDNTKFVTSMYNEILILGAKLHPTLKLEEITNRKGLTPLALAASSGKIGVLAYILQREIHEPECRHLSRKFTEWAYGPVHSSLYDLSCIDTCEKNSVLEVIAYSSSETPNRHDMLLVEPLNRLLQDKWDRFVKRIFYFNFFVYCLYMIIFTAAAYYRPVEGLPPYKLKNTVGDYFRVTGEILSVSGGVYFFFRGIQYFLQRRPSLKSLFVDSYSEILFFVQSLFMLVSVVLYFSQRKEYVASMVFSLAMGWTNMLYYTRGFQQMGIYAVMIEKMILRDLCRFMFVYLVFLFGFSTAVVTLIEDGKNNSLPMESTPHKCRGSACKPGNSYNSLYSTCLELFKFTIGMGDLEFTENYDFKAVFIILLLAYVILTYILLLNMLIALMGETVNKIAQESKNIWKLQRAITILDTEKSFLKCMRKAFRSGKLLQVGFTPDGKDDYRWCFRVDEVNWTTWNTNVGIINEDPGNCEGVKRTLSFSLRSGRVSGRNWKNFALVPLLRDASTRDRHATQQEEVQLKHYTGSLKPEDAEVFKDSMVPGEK
- Assay: Agonist activity by [Ca2+] uptake in CHO cells expressing rat TRPV1 at 10-30 uM
- Assay type: functional, cell-based
Formally, pEC50 is defined as -log10 of the concentration c, with c in mol/L.

1. CC(C)(C)c1ccc(C/N=C(\S)NCc2ccc(CNS(C)(=O)=O)cc2)cc1 = 5.76

Query: Record request: pEC50 value, item C=CS(=O)(=O)Nc1ccc(CN/C(S)=N/Cc2ccc(C(C)(C)C)cc2)cc1
Result: 6.60

----------
Listed next: entries and their corresponding pKi.
- Target: Transient receptor potential cation channel subfamily V member 1 (Rattus norvegicus)
- Assay: Antagonist activity for rat TRPV1 expressed in CHO cells
- Assay type: functional, cell-based
Please keep in mind that pKi is minus log10 of the molar concentration; only the number is needed.

1. CC(C)(C)c1ccc(C/N=C(\S)NCc2ccc(NS(C)(=O)=O)nc2)cc1 = 6.75

Query: Which pKi reading was recorded for the compound CC(C)(C)c1ccc(C/N=C(\S)NCc2ccc(NS(=O)(=O)CCN=[N+]=[N-])cc2)cc1 ?
Result: 6.64

Query: Entry CC(C)(C)c1ccc(C/N=C(\S)NCc2ccc(NS(C)(=O)=O)cn2)cc1 : reported pKi = ?
Result: 5.39
